# System: SK-MEL-5 melanoma
# measurement-description: NCI-60 one-dose screen, 48 h (100 = growth as untreated, 0 = no growth, -100 = all killed)
# run-conditions: 10 µM unless noted
The panel holds about 83,000 compounds, 20% with a hit somewhere; the sample as a whole holds those more often.
property-label: growth (%)
// units = %; emit number, no label

molecule=O=S(=O)(NCCCNc1nccc(-n2cnc3ccccc32)n1)c1ccc(C(F)(F)F)cc1 measured_value=58.8
molecule=C[C@H](CCC(=O)NCc1ccc(C(=O)Nc2ccccc2N)cc1)[C@H]1CC[C@H]2[C@@H]3[C@@H](O)C[C@@H]4C[C@H](O)CC[C@]4(C)[C@H]3CC[C@]12C measured_value=63.3
molecule=CC1(C)[C@@H](O)CC[C@]2(C)[C@H]3CC[C@@H]4[C@H]5[C@H](C(=O)/C=C\c6ccccn6)CC[C@]5(O)CC[C@@]4(C)[C@]3(C)CC[C@@H]12 measured_value=54.1
molecule="CCNC(=O)N1CCc2cc(OC)c(OCCc3ccc(OC)cc3)cc2C1c1ccc(OC)cc1C (stereo not drawn)" measured_value=-1.62
molecule="O=C1CC(=O)N2CSCN(C(c3ccccc3)c3nc4ncncc4[nH]3)C2=N1 (stereo not drawn)" measured_value=105
molecule=Cc1c(F)cc(C(N)=O)cc1NCC(=O)Nc1ccc([N+](=O)[O-])cc1 measured_value=95.7
molecule=Cc1nn(-c2ccccc2)c2ncnc(N/N=C/c3ccccc3)c12 measured_value=92.2

Note: attention shifts to another entry.
Prompt: Param item = COC(=O)c1[nH]nc2c1C1(C(=O)c3cccc4cccc1c34)C(C#N)=C(N)O2 (stereo not drawn) ; retrieve measured growth.
Response: 98.6

###

# Test system: MCF7 breast
# measurement-description: NCI-60 one-dose screen, 48 h (100 = growth as untreated, 0 = no growth, -100 = all killed)
# run-conditions: 10 µM unless noted
This is part of a sample that, as a whole, favours compounds with a hit. Of some 83,000 tested, about 20% had one in any assay. The source made the active and inactive calls. Rule for the calls: active = growth percent below 10; inactive = the rest.
property-label: growth

compound=CC(=O)Nc1cccc(Nc2nc(N[C@@H](C)c3ccccc3)c3ccccc3n2)c1 measured_value="8.63% (active)"
compound=Nc1nc(Nc2ccccc2SSc2ccccc2Nc2nc(N)nc(-c3ccc4ccccc4c3)n2)nc(-c2ccc3ccccc3c2)n1 measured_value="76% (inactive)"
compound=CN1CCN(Cc2ccc(NC(=O)c3cncc(C#Cc4cnc5ccc(N6CCN(C)CC6)nn45)c3)cc2C(F)(F)F)CC1 measured_value="-76.2% (active)"
compound=CC(C)(C)c1ccc(-c2nnc(-c3nc4ccccc4nc3Cl)o2)cc1 measured_value="-65.9% (active)"
compound=Nc1cc(F)ccc1NC(=O)c1ccc(NC(=O)C/C=C/c2cccnc2)cc1 measured_value="33% (inactive)"

Prompt: Param item = "O=S(=O)(NCCCNc1nccc(-c2[nH]c(-c3ccccc3)nc2-c2ccc(Cl)c(O)c2)n1)c1cccc2ccccc12" ; retrieve measured growth.
Response: 16.4% (inactive)

Prompt: Param item = c1ccc(C(c2nc3ncncc3[nH]2)N2CSc3nc4ccccc4n3C2)cc1 (configuration not stated) ; retrieve measured growth.
Response: 94.9% (inactive)

Prompt: Param item = "Cc1ccc(-c2cc3nc(C(Cl)Cl)nc(C)n3n2)cc1" ; retrieve measured growth.
Response: 88.3% (inactive)

Prompt: Param item = "NC(N)=Nc1ccc(Oc2cccc(NC(N)=Nc3ccc(Cl)c(C(F)(F)F)c3)c2)cc1" ; retrieve measured growth.
Response: 42% (inactive)

Prompt: Param item = CCO/C=N/C1=C(C#N)C(c2ccc(OC)cc2)c2sc3c(CC)cccc3c2O1 (configuration not stated) ; retrieve measured growth.
Response: 24.6% (inactive)
